The origin of these recorded values is ChEMBL document CHEMBL1687740.

# Tested on: Staphylococcus aureus
# test protocol: Antibacterial activity against methicillin-sensitive Staphylococcus aureus ATCC 25923 infected in human THP1 cells assessed as concentration required to no apparent bacterial growth after 24 hrs
# Type: functional, THP-1
observation type: Activity (mg/L)
Note: unit mg/L is implicit; provide only the numeric part.

CC[C@H]1OC(=O)[C@H](C)[C@@H](O[C@H]2C[C@@](C)(OC)[C@@H](O)[C@H](C)O2)[C@H](C)[C@@H](O[C@@H]2O[C@H](C)C[C@H](N(C)C)[C@H]2O)[C@](C)(OC)C[C@@H](C)C(=O)[C@H](C)[C@@H](O)[C@]1(C)O | 0.84
CC[C@H]1OC(=O)[C@@](C)(F)C(=O)[C@H](C)[C@@H](O[C@@H]2O[C@H](C)C[C@H](N(C)C)[C@H]2O)[C@](C)(OC)C[C@@H](C)C(=O)[C@H](C)[C@H]2N(CCCCn3cc(-c4cccc(N)c4)nn3)C(=O)O[C@]12C | 0.022

As a next step, examine the molecule that follows.
Req: Endpoint output: Activity of CC[C@H]1OC(=O)[C@H](C)[C@@H](O[C@H]2C[C@@](C)(OC)[C@@H](O)[C@H](C)O2)[C@H](C)[C@@H](O[C@@H]2O[C@H](C)C[C@H](N(C)C)[C@H]2O)[C@](C)(O)C[C@@H](C)CN(C)[C@H](C)[C@@H](O)[C@]1(C)O . Value?
Resp: 0.63
